- Test system: HEK-293T
- assayRemarks: Multiplex assay against HEK293T
- Type: toxicity, cell-based
- settings: human, 12 h, 10 µM, compound concentration 10 uM, replicate 1
Non-standard residues stand in square brackets, D forms with d. Residues, ends and D or L forms follow the SMILES beside them.
measuredMetric: Population Mitochondria Different-Phenotype (%)
Enter your answer as a number in %; do not include the unit.

Known results for compounds:
- Cc1cc(NC(=O)NCCN2CCC(O)(Cc3ccccc3)CC2)c2ccccc2n1 [PALOSURAN]: 53
- CN(C)C(=O)Cn1cc(-c2ccc(-c3nnc4ccccn34)cc2)cn1: 61
- CN1C[C@H](C(=O)N[C@]2(C)O[C@@]3(O)[C@@H]4CCCN4C(=O)[C@H](Cc4ccccc4)N3C2=O)C[C@@H]2c3cccc4[nH]cc(c34)C[C@H]21.CS(=O)(=O)O [DIHYDROERGOTAMINE MESYLATE]: 48
- CC(C)(O)C(=O)N1CCN(c2ccc(C(F)(F)F)c(C3=C(c4c[nH]c5ccccc45)C(=O)NC3=O)c2)CC1: 61
- CC(C)C[C@@H]1NC(=O)[C@@H](C(C)C)NC(=O)[C@@H]2CCCN2C(=O)[C@@H](CC(=O)O)NC(=O)[C@@H](Cc2c[nH]c3ccccc23)NC1=O [BQ-123] (cyclo(L[dW][dD]P[dV])): 48
- CCc1nn2c(C)cc(C)nc2c1Cc1ccc(-c2nnc(C3CCNCC3)o2)cc1: 85

Please provide the recorded Population Mitochondria Different-Phenotype (%) for "S=C(NCCCc1c[nH]cn1)NCCCN(Cc1ccc(Cl)c(Cl)c1)c1ccc(Br)cn1" , tested on HEK-293T.
77

Please provide the recorded Population Mitochondria Different-Phenotype (%) for "COc1cc(C(=O)N2CC[C@@H](O)[C@@H](N)C2)cc2nc(-c3cc4ccccc4n3CC3CC3)n(C)c12.Cl" , tested on HEK-293T.
90

----------
- Tested on: U2OS
- assayRemarks: Multiplex assay against U2OS
- Format: toxicity, cell-based
- settings: human, 12 h, 10 µM, compound concentration 10 uM, replicate 2
The entries below are paired with their reported Population Healthy Nuclei (%).
Enter your answer as a number in %; do not include the unit.

• CC(C)C[C@H](CO)Nc1nc(S[C@@H](C)c2ccccc2)nc2nc(N)sc12 = 79
• COc1ccc2c(c1OCc1ccccc1)C[C@@H](C(=O)O)N(C(=O)C(c1ccccc1)c1ccccc1)C2 = 63
• CN1CCN(c2ccc(Nc3c4ccccc4nc4ccccc34)cc2)CC1.Cl.Cl.O = 31
• CCCCCCNC(=O)Nc1ccc(S(=O)(=O)Nc2ccc(CCNC[C@H](O)COc3ccc(O)cc3)cc2)cc1 = 72
• CC(C)(O)C(=O)N1CCN(c2ccc(C(F)(F)F)c(C3=C(c4c[nH]c5ccccc45)C(=O)NC3=O)c2)CC1 = 77
• Cc1cc(O)c(-c2ccc([C@@H](C)CN(C)C)cc2)c2c1[nH]c(=O)c1sccc12 = 56

I have this molecule here, Cc1ccc(OCC(O)C(C)NC(C)C)c2c1CCC2.Cl (configuration not stated) , and I need its recorded Population Healthy Nuclei (%).
81

I have this molecule here, "OCCCNc1cc(-c2ccnc(Nc3cccc(Cl)c3)n2)ccn1" , and I need its recorded Population Healthy Nuclei (%).
64

I have this molecule here, "C[C@H](NC(=O)CNC(=O)c1cccc(Cl)c1)c1ccccc1" , and I need its recorded Population Healthy Nuclei (%).
82

I have this molecule here, "CC(C)(C)c1ccc(CSc2cnn(C(C)(C)C)c(=O)c2Cl)cc1" , and I need its recorded Population Healthy Nuclei (%).
73

I have this molecule here, CN(C)C/C=C/C(=O)Nc1ccc(C(=O)N2CCCC(Nc3ncc(Cl)c(-c4c[nH]c5ccccc45)n3)C2)cc1 (configuration not stated) , and I need its recorded Population Healthy Nuclei (%).
54

I have this molecule here, "Nc1nc(-c2ccco2)c2cnn(Cc3ccccc3F)c2n1" , and I need its recorded Population Healthy Nuclei (%).
72

I have this molecule here, "Cc1sc2c(c1C)C(c1ccc(Cl)cc1)=N[C@H](CC(=O)OC(C)(C)C)c1nnc(C)n1-2" , and I need its recorded Population Healthy Nuclei (%).
68

I have this molecule here, "C=CCN1C[C@H](C(=O)N(CCCN(C)C)C(=O)NCC)C[C@@H]2c3cccc4[nH]cc(c34)C[C@H]21" , and I need its recorded Population Healthy Nuclei (%).
70

I have this molecule here, "Cc1cc(=O)n(C)c2cc(N3C(=O)CC[C@H](NS(=O)(=O)CC(C)C)[C@H]3c3ccc(Cl)cc3)ccc12" , and I need its recorded Population Healthy Nuclei (%).
60

I have this molecule here, CN1CCN2c3ccccc3Cc3ccccc3C2C1.Cl (configuration not stated) [MIANSERIN HYDROCHLORIDE] , and I need its recorded Population Healthy Nuclei (%).
77
